experimentNotes: Beagle pharmacokinetic study (ig/sc/iv, plasma LC/MS/MS)
Assay type: in vivo, beagles
protocolConditions: dog, plasma, intravenous injection, 1 mg/kg, read-out: Area under curve AUC0-72
measureName: AUC(0-t)

1. CC(C)(C#Cc1ccc(-c2ccc(Cl)c3c(NS(C)(=O)=O)nn(CC(F)(F)F)c23)c([C@H](Cc2cc(F)cc(F)c2)NC(=O)Cn2nc(C(F)(F)F)c3c2C(F)(F)[C@@H]2C[C@H]32)n1)S(C)(=O)=O [Positive Control Example 1, reference compound]; 14700 ng·h/mL

# evaluate next
Query string: Fill blank: measured AUC(0-t) of the compound CC(C)(C#Cc1nc([C@H](Cc2cc(F)cc(F)c2)NC(=O)Cn2nc(C(F)(F)F)c3c2C(F)(F)[C@@H]2C[C@H]32)c(-c2ccc(Cl)c3c(NS(C)(=O)=O)nn(CC(F)(F)F)c23)c2c1CCC2)S(C)(=O)=O (atropisomer, axis not shown; (aR)) [Example 1-1] is ____.
Result string: 16500 ng·h/mL

###

Attribute: AUC(0-t)
experimentNotes: Beagle pharmacokinetic study (ig/sc/iv, plasma LC/MS/MS)
Assay type: in vivo, beagles
protocolConditions: dog, plasma, po, intragastric administration, 4 mg/kg, read-out: Area under curve AUC0-72
Dear colleague, please send the value followed by its unit.

1. CC(C)(C#Cc1nc([C@H](Cc2cc(F)cc(F)c2)NC(=O)Cn2nc(C(F)(F)F)c3c2C(F)(F)[C@@H]2C[C@H]32)c(-c2ccc(Cl)c3c(NS(C)(=O)=O)nn(CC(F)(F)F)c23)c2c1CCC2)S(C)(=O)=O (atropisomer, axis not shown; (aR)) [Example 1-1]; 8230 ng·h/mL

# evaluate next
Query string: Fill blank: measured AUC(0-t) of the compound CC(C)(C#Cc1ccc(-c2ccc(Cl)c3c(NS(C)(=O)=O)nn(CC(F)(F)F)c23)c([C@H](Cc2cc(F)cc(F)c2)NC(=O)Cn2nc(C(F)(F)F)c3c2C(F)(F)[C@@H]2C[C@H]32)n1)S(C)(=O)=O [Positive Control Example 1, reference compound] is ____.
Result string: 11200 ng·h/mL

###

experimentNotes: Beagle pharmacokinetic study (ig/sc/iv, plasma LC/MS/MS)
Type: in vivo, beagles
protocolConditions: dog, plasma, intravenous injection, 1 mg/kg, read-out: Plasma concentration Cmax
Attribute: Cmax
Your answer should be a plain number; it is taken to be in µg/mL.

1. CC(C)(C#Cc1nc([C@H](Cc2cc(F)cc(F)c2)NC(=O)Cn2nc(C(F)(F)F)c3c2C(F)(F)[C@@H]2C[C@H]32)c(-c2ccc(Cl)c3c(NS(C)(=O)=O)nn(CC(F)(F)F)c23)c2c1CCC2)S(C)(=O)=O (atropisomer, axis not shown; (aR)) [Example 1-1]; 1.32

# evaluate next
Query string: Fill blank: measured Cmax of the molecule CC(C)(C#Cc1ccc(-c2ccc(Cl)c3c(NS(C)(=O)=O)nn(CC(F)(F)F)c23)c([C@H](Cc2cc(F)cc(F)c2)NC(=O)Cn2nc(C(F)(F)F)c3c2C(F)(F)[C@@H]2C[C@H]32)n1)S(C)(=O)=O [Positive Control Example 1, reference compound] is ____.
Result string: 1.11

###

experimentNotes: Beagle pharmacokinetic study (ig/sc/iv, plasma LC/MS/MS)
Format: in vivo, beagles
protocolConditions: dog, plasma, sc, subcutaneous injection, 6 mg/kg, read-out: Plasma concentration Cmax
Attribute: Cmax
Your answer should be a plain number; it is taken to be in ng/mL.

1. CC(C)(C#Cc1ccc(-c2ccc(Cl)c3c(NS(C)(=O)=O)nn(CC(F)(F)F)c23)c([C@H](Cc2cc(F)cc(F)c2)NC(=O)Cn2nc(C(F)(F)F)c3c2C(F)(F)[C@@H]2C[C@H]32)n1)S(C)(=O)=O [Positive Control Example 1, reference compound]; 54.6

# evaluate next
Query string: Fill blank: measured Cmax of the compound CC(C)(C#Cc1nc([C@H](Cc2cc(F)cc(F)c2)NC(=O)Cn2nc(C(F)(F)F)c3c2C(F)(F)[C@@H]2C[C@H]32)c(-c2ccc(Cl)c3c(NS(C)(=O)=O)nn(CC(F)(F)F)c23)c2c1CCC2)S(C)(=O)=O (atropisomer, axis not shown; (aR)) [Example 1-1] is ____.
Result string: 122

###

experimentNotes: Beagle pharmacokinetic study (ig/sc/iv, plasma LC/MS/MS)
Format: in vivo, beagles
protocolConditions: dog, plasma, intravenous injection, 1 mg/kg, read-out: Half life T½ (converted)
measureName: half-life (h)
Your answer should be a plain number; it is taken to be in h.

Query string: Fill blank: measured half-life of the compound CC(C)(C#Cc1ccc(-c2ccc(Cl)c3c(NS(C)(=O)=O)nn(CC(F)(F)F)c23)c([C@H](Cc2cc(F)cc(F)c2)NC(=O)Cn2nc(C(F)(F)F)c3c2C(F)(F)[C@@H]2C[C@H]32)n1)S(C)(=O)=O [Positive Control Example 1, reference compound] is ____.
Result string: 13.7

Query string: CC(C)(C#Cc1nc([C@H](Cc2cc(F)cc(F)c2)NC(=O)Cn2nc(C(F)(F)F)c3c2C(F)(F)[C@@H]2C[C@H]32)c(-c2ccc(Cl)c3c(NS(C)(=O)=O)nn(CC(F)(F)F)c23)c2c1CCC2)S(C)(=O)=O (atropisomer, axis not shown; (aR)) , same question.
Result string: 41.8
